Data origin: patent US20110287512

system: ZFP7264 linker TKHGTPKHREDKP (artificial)
test readout: binding signal (normalized ELISA)
Response field accepts a number only; no unit should be typed.

In the examples that follow, each entry is paired with its recorded binding signal (normalized ELISA).
| sequence chain | binding signal (normalized ELISA) |
| --- | --- |
| TTAGTTAAAGCGAGCTCCGAATATC (double strand) [7264 target gap A] | 0.01 |
| TTAGTTAAAGCGCTGCTCCGAATATC (double strand) [7264 target gap CT] | 0 |
| TTAGTTAAAGCGGGCTCCGAATATC (double strand) [7264 target gap G] | 0.01 |
| TTAGTTAAAGCGCGCTCCGAATATC (double strand) [7264 target gap C] | 0.01 |
| TTAGTTAAAGCGTAGCTCCGAATATC (double strand) [7264 target gap TA] | 0 |

Now examine the next entry.
Prompt: What value of measured binding signal (normalized ELISA) is listed for TTAGTTAAAGCGTTGCTCCGAATATC (double strand) [7264 target gap TT] ?
Completion: 0
